biological target: T1, factor H binding protein (fHbp) variant 2.16 (Neisseria meningitidis 961-5945, UniProt Q6VS19, strain); assay: SPR; details: both partners purified
T1 construct: also called fHbp v2.16; fHbp v2; source: E. coli BL21(DE3), purified (Ni-NTA; SEC when necessary)
assayReadout: kon (M⁻¹ s⁻¹)

{"columns": ["binder", "unitOfMeasure", "measValue"],
 "data": [
  ["human anti-fHbp mAb 1D1 (antibody, V domains shown, source: Expi293, transient transfection, purified (protein G Sepharose)) VH: QVQLVGSGGGLVKPGGSLRLSCAASGFTFSSYTMNWVRQAPGKGLEWVSSISSSSGYIYYADSLKGRFTISRDDAKNSLFLQMNSLRAEDTAVYFCARDKVLPAPPGFYGLDVWGPGTTVTVSS VL: QSVVTQPPSVSAAPGQKVTISCSGSSSNIEDNFVSWYQQLPGTAPKLLIYDNNQRPSGIPDRFSGSKSGTSATLGITGLQTGDEADYYCATWDNSLSARVFGGGTKLTVL", "M⁻¹ s⁻¹", 450000],
  ["human anti-fHbp mAb 4B3 (antibody, V domains shown, source: Expi293, transient transfection, purified (protein G Sepharose)) VH: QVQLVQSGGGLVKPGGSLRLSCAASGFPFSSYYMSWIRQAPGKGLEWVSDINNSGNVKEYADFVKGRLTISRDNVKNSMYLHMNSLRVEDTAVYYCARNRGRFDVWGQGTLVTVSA VL: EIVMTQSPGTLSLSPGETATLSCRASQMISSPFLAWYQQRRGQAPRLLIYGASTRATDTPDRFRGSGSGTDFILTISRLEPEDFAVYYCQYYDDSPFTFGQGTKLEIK", "M⁻¹ s⁻¹", "2.73e+06"],
  ["human anti-fHbp mAb 3G7 (antibody, V domains shown, source: Expi293, transient transfection, purified (protein G Sepharose)) VH: EVQLLQSGGGLVKPGGSLRLSCAASGFPFSSYYMSWIRQAPGKGLEWVSDINNSGNVKEYADFVKGRLTISRDNVKNSMYLHMNSLRVEDTAVYYCARNRGRFDVWGQGTLVTVSA VL: EIVLTQSPGTLSLSPGETATLSCRASQMISSPFLAWYQQRRGQAPRLLIYGASTRATDTPDRFRGSGSGTDFILTISRLEPEDFAVYYCQYYDDSPFTFGQGTKLEIK", "M⁻¹ s⁻¹", 741000],
  ["human anti-fHbp mAb 2C8 (antibody, V domains shown, source: Expi293, transient transfection, purified (protein G Sepharose)) VH: QVQLVQSGAEVKKPGSSVKVSCKASGGTVINYPISWVRQVPGQGLEWMGRLVPLFGTPNYGQKFQGRITITADKSTSAAYMELIGLKSEDTAVYYCARGDTAMAPFDYWGHGTLVTVSS VL: QLVLTQPPSVSVAPGKTATITCGGNNVGGKTVHWYQQKPGQAPVLVMSYDSDRPSGIPERFSGSNSGNTATLTISRVEAEDEADYYCQVWHGNDDHWVFGGGTKLTVL", "M⁻¹ s⁻¹", "1.31e+07"],
  ["human anti-fHbp mAb 2G1 (antibody, V domains shown, source: Expi293, transient transfection, purified (protein G Sepharose)) VH: QVQLVESGGDLVKPGGSLRLSCVASGFTFSSYTMNWVRQAPGKGLEWVSSITSSSSFTYYADSVKGRFIISRDNAKNSLSLQMNNLRVEDTATYYCARRKDSSDYDWYYYYGMDVWGLGTTVTVSS VL: QSVLTQPPSVSAAPGQKVTISCSGSSSNIGDNYMSWYQQIPGTAPKLLIFDNDQRPSGIPDRFSASKSGTSATLDITGFQTGDEADYYCGTWDSGLSAPVFGGGTKLTVL", "M⁻¹ s⁻¹", 270000],
  ["human anti-fHbp mAb 4F9 (antibody, V domains shown, source: Expi293, transient transfection, purified (protein G Sepharose)) VH: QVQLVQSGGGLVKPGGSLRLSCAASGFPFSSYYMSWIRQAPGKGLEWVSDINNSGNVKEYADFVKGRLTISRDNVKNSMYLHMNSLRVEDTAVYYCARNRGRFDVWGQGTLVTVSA VL: EIVMTQSPGTLSLSPGETATLSCRASQMISSPFLAWYQQRRGQAPRLLIYGASTRATDTPDRFRGSGSGTDFILTISRLEPEDFAVYYCQHYDDSPFTFGQGTKLEIK", "M⁻¹ s⁻¹", "1.16e+06"],
  ["human anti-fHbp mAb 3B7 (antibody, V domains shown, source: Expi293, transient transfection, purified (protein G Sepharose)) VH: EVQLVQSGAEVKKPGSSVKVSCKASGDTFSNYPISWVRQAPGQGLEWMGGIIPIFGTANYAQKFQGRVTITADESTSTPYMELSSLRSEDTAVYYCARGDTAMAPFDYWGQGTLVTVSS VL: SYVLTQPPSVSVAPGKTARITCGGNSIGSKSVHWYQQKPGQAPVLVIYYDSDRPSGVPERISGSNSGNTATLTISRVEAGDEADYYCQVWDSSSDSWVFGGGTKLTVL", "M⁻¹ s⁻¹", "1.32e+06"],
  ["human anti-fHbp mAb 3F1 (antibody, V domains shown, source: Expi293, transient transfection, purified (protein G Sepharose)) VH: EVHLVESGGGLVKPGGSLRLSCAASGFTFSSYTMNWVRQAPGKGLEWVSSISSSSGYIYYADSLKGRFTISRDNAKNSLFLQMNSLRAEDTAVYFCARDKVLPAPPGFYGLDVWGPGTTVTVSS VL: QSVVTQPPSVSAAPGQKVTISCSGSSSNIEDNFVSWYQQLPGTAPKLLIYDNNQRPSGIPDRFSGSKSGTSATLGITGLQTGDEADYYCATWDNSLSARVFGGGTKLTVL", "M⁻¹ s⁻¹", 382000],
  ["human anti-fHbp mAb 1E10 (antibody, V domains shown, source: Expi293, transient transfection, purified (protein G Sepharose)) VH: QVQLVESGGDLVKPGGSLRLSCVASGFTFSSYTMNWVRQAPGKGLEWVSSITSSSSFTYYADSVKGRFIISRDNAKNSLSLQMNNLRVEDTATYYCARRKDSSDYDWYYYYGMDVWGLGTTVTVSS VL: QSVVTQPPSVSAAPGQKVTISCSGSSSNIGDNYMSWYQQIPGTAPKLLIFDNDQRPSGIPDRFSASKSGTSATLDITGFQTGDEADYYCGTWDSGLSAPVFGGGTKLTVL", "M⁻¹ s⁻¹", 630000],
  ["human anti-fHbp mAb 4B10 (antibody, V domains shown, source: Expi293, transient transfection, purified (protein G Sepharose)) VH: EVQLVESGGGLVKPGGSLRLSCAASGFAFSTYSLHWVRQAPGKGLEWVSAITSSGSFLYYADSLKGRFTVSRDNAKNSLFLQMNSLRAGDTAVYYCARALQVEDGFPMFSGLDVWGQGTTVTVSS VL: QTVVTQPPSVSEAPRQRVAISCSGSSSNIGDNSVSWYQQLPGKAPKLLIYDDDLLPSGVSDRFSASKSGTSASLAISGLQSEDEAEYYCAAWDDSLKGVVFGGGTKLTVL", "M⁻¹ s⁻¹", "1.57e+07"],
  ["human anti-fHbp mAb 5F12 (antibody, V domains shown, source: Expi293, transient transfection, purified (protein G Sepharose)) VH: EVQLVESGGDLVKPGGSLRLSCAASGFTFSNYTMNWVRQAPGKGLEWVSSITSSSSFKYYADSVKGRFTISRDNAKNSVFLQMNSLRAEDTAIYYCARRIDSSDQDWFYYYGMDVWGLGTTVTVSS VL: QSVLTQPPSVSAAPGQRVTISCSGSSSNIGDNYISWYQQLPGTAPKLLIYDNDQRPSGTPDRFSASKSGTSATLGVTGLQTGDEADYYCGTWDSSLNAPVFGSGTKVTVL", "M⁻¹ s⁻¹", 690000]
]}
